Literature roundup of Apoptosis regulator Bcl-2 (Homo sapiens, UniProt P10415) data, read-out Ki.

Below, 3 compounds whose answers are already recorded.
Compound string	Ki
O=C(Nc1ccc(O)c(C(=O)O)c1)c1ccc(/C=C2\SC(=S)N(c3ccc([N+](=O)[O-])cc3)C2=O)cc1	> 10 µM
COc1ccc2c(c1)c(CC(=O)N[C@@H](Cc1ccccc1)C(=O)NS(=O)(=O)c1ccccc1)c(C)n2-c1ccc(C)cc1	> 10 µM
CCCOc1ccc(C[C@H](NC(=O)c2cn(Cc3ccc(-c4ccc(OC)cc4)cc3)c3ccccc23)C(=O)NS(=O)(=O)c2ccc(Cl)c([N+](=O)[O-])c2)cc1	> 10 µM

Then there is this compound:
Identify the measured Ki of `COC1(Cc2ccccc2-c2ccccc2)CCN(c2ccc(C(=O)NS(=O)(=O)c3ccc(N[C@H](CCN(C)C)CSc4ccccc4)c([N+](=O)[O-])c3)cc2)CC1` for Apoptosis regulator Bcl-2 (Homo sapiens, UniProt P10415). < 0.001 µM

====

Literature roundup of UniProtKB P10415 data, read-out pKi.
For clarity, pKi is expressed as the negative log10 of concentration in mol/L.

Below, 2 compounds whose answers are already recorded.
Compound string	pKi
CC(C)Oc1ccc(-c2cc(C(=O)O)nn2-c2ccc(Oc3ccccc3)cc2)cc1	6.03
Cc1ccc(S(=O)(=O)NC(=O)[C@H](Cc2ccccc2)N2C(=O)/C(=C/c3ccc(-c4ccccc4)cc3)SC2=S)cc1	6.03

Then there is this compound:
Identify the measured pKi of `CC(C)(C)OC(=O)N1C[C@@H](Oc2ccc(-c3ccc(Cl)cc3)cc2)C[C@H]1C(=O)N[C@@H](Cc1ccc(Br)cc1)C(=O)NS(=O)(=O)c1ccc(Cl)c([N+](=O)[O-])c1` for UniProtKB P10415. 6.08

====

Literature roundup of Apoptosis regulator Bcl-2 (Homo sapiens, UniProt P10415) data, read-out pKi.
For clarity, pKi is expressed as the negative log10 of concentration in mol/L.

Compound string	pKi
Cc1ccc(/N=c2\c3ccc(C)cc3n(C(=O)c3ccc(C(C)(C)C)cc3)c3c(O)c(O)c(O)cc23)cc1	6.68
CN(C)CC[C@H](CSc1ccccc1)Nc1ccc(S(=O)(=O)NC(=O)c2ccc(N3CCC(=Cc4ccccc4F)CC3)cc2)cc1[N+](=O)[O-]	8.60

Then there is this compound:
Identify the measured pKi of `COc1cc(CCCN2CCOCC2)ccc1-c1ccc(C(=O)NS(=O)(=O)c2ccc(NCCSc3ccccc3)c([N+](=O)[O-])c2)cc1` for Apoptosis regulator Bcl-2 (Homo sapiens, UniProt P10415). 6.40

====

Literature roundup of UniProtKB P10415 data, read-out pKi.
pKi: −log10 of the molar value.

For the compound `O=C(O)c1ccc(COc2ccc(/C=C3\SC(=S)N(Cc4ccc(F)cc4)C3=O)cc2)cc1` , what pKi is on record? < 5.00

For the compound `O=C(O)c1ccc(COc2ccc(/C=C3\SC(=S)N(c4ccc(Cl)cc4)C3=O)cc2)cc1` , what pKi is on record? < 5.00

For the compound `O=C(O)[C@H](Cc1ccccc1)NC(=O)[C@H](Cc1ccccc1)N1C(=O)N[C@@H](Cc2ccc(-c3ccc(Cl)cc3)cc2)C1=O` , what pKi is on record? < 4.30

For the compound `COc1ccc(-c2ccc(Cn3cc(C(=O)N[C@@H](Cc4ccc(Br)cc4)C(=O)NS(=O)(=O)c4ccc(Cl)c([N+](=O)[O-])c4)c4ccccc43)cc2)cc1` , what pKi is on record? < 5.00
